FYI, the data here is from patent US20230011916A1.

Documented koff across a set of binders
Molecular target: T1, recombinant OX40 protein with a His tag (Cat: 10481-H08H, Sino Biological) (UniProt P43489 29-216)
T1 construct: Bought protein; also called OX40-His (bought); not shown: His tag
T1 sequence (looked up): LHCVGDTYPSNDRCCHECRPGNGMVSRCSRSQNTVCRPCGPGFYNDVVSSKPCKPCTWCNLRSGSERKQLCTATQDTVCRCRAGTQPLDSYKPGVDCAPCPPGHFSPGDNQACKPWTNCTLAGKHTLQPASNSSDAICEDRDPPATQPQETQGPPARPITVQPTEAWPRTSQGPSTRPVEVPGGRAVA
Experiment: Biacore (SPR); antigen not named on the sheet, OX40-His as in Example 4
RESULT_TYPE: koff

| BINDER | RESULT_TYPE | ENDPOINT_RESULT |
| --- | --- | --- |
| 445-2 with K28T in the heavy chain and S24R in the light chain (antibody, human IgG1, V domains shown) VH: QVQLVQSGAEVKKPGSSVKVSCKASGYTFTSYIIHWVRQAPGQGLEWMGYINPYNEGTRYAQKFQGRVTLTADKSTSTAYMELSSLRSEDTAVYYCARGYYGSSYAMDYWGQGTTVTVSS VL: DIQMTQSPSSLSASVGDRVTITCRASQGISNYLNWYQQKPGKAIKLLIYDASTLYSGVPSRFSGSGSGTDFTLTISSLQPEDFATYYCQQYSKLPYTFGGGTKVEIK | koff | 0.00574 s⁻¹ |
| 445-3(T30S)-3(S24R) (antibody, V domains shown) VH: QVQLVQSGAEVKKPGSSVKVSCKASGYKFSSYIIHWVRQAPGQGLEWMGYINPYNEGTRYAQKFQGRVTLTADKSTSTAYMELSSLRSEDTAVYYCARGYYGSSYAMDYWGQGTTVTVSS VL: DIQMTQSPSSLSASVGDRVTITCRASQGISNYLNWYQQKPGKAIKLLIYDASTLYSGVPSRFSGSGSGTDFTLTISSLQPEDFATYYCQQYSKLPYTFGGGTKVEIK | koff | 0.00381 s⁻¹ |
